biological target: HLA-A*0201 (human, UniProt A*02:01); assay: REVEAL MHC binding assay (ProImmune)
RECORDED METRIC: % Pass/fail control

Determine its reported % Pass/fail control: VLAEASASQ [Peptide ID 125 VLAEASASQ (FLT3)]
103 % of pass/fail control

Please list % Pass/fail control recorded for the binder LMIPAGIYA [Peptide ID 40 LMIPAGIYA (CD20)]
142 % of pass/fail control

Note down % Pass/fail control recorded for LLEGNLVTL [Peptide ID 76 LLEGNLVTL (CD64)]
173 % of pass/fail control

Please look at this binder and report its % Pass/fail control: FLLGLGLGV [Peptide ID 8 FLLGLGLGV (CD7)]
202 % of pass/fail control

Given the binder YISRDTCIV [Peptide ID 69 YISRDTCIV (HA-2)] , write its reported % Pass/fail control.
133 % of pass/fail control

Return the recorded % Pass/fail control value; entry: LLAPRFLEV (Modified peptide) [Peptide ID 142 LLAPRFLEV (CD50, modified peptide)]
218 % of pass/fail control

FYI, the data here is from patent US20110142842A1.
